# systemTested: DLG5_2, Q8TDM6
# Sequence (Q8TDM6 714-800): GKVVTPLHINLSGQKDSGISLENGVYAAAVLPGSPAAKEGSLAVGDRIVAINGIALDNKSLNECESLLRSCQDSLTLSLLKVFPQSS
# experimentalProtocol: holdup assay
# Set-up: key: below the threshold = too weak to quantify, mostly under pKd 3.1 to 4
# experimentalConditions: plain residues with an end cap or a label only (N-terminal biotin on a linker: ttds)
Measured pKd, listed per entry.

>  <binder>
SSLQSLETSV [ATP2B4, P23634]

>  <pKd>
4.34

$$$$
>  <binder>
SKPTRRETEV [HPV35-E6, P27228]

>  <pKd>
4.72

$$$$
